experiment: Thermodynamic solubility of the compound at pH 7.4; format: physicochemical; conditions: buffer, read-out: Therm_solubility
measured parameter: solubility thermodynamic (µg/mL)
State the answer as a number, implicitly in µg/mL.

Record CNc1nc(Nc2cnn(CC(C)(C)O)c2Cl)ncc1C(F)(F)F , field solubility thermodynamic: 20

---

assay: Volume of distribution in Sprague-Dawley rat at 0.5 mg/kg, iv; type: ADME, organism-based; set-up: dose 0.5 mg/kg, route intravenous; settings: in vivo
measured parameter: Vd (L/kg)

a: CNc1nc(Nc2cnn(CC(C)(C)O)c2C)ncc1C(F)(F)F
b: CNc1nc(Nc2cnn(CC(C)(C)O)c2Cl)ncc1C(F)(F)F
## Input Field: lower Vd | Options: a / b Record your answer as the label of the chosen record.
## Output a
(a: 0.88 L/kg, b: 2.5 L/kg)
